test.target: T1, DUSP3-WT (dual-specificity phosphatase 3) (UniProt P51452 1-185)
T1 construct: DUSP3 (VHR), wild type, cDNA in pGEX-4T2 (Torres et al., 2017); Immobilised on a CM5 sensorchip; also called VHR; vaccinia virus H1-related phosphatase; source: E. coli BL-21 (DE3), purified (Glutathione-Sepharose 4B; GST removed by thrombin)
T1 sequence (P51452 whole entry): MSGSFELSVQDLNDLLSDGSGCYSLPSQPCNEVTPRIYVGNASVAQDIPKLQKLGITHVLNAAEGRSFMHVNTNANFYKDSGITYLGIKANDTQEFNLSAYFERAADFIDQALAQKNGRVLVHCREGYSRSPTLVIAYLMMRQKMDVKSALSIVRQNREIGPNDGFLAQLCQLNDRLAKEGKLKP
procedure.text: SPR; Biacore T100; DUSP3-WT immobilised on CM5 sensorchip (3,000 RU); peptides 5-40 μM in HBS-N buffer; 25°C, 120 s association, 300 s dissociation, 10 μl/min; three independent experiments
stated.conditions: both partners purified
Non-standard residues stand in square brackets, D forms with d. No end group written: not given here. pY = N[C@@H](Cc1ccc(OP(=O)(O)O)cc1)C(=O)O
Below, each entry is listed with its recorded Kd.
Please give a number only; it is taken to be in nM.

Some solved cases for reference:
Which Kd is listed for SPLRPQN[pY]L (Stretch of nucleophosmin around Y17; source: synthetic peptide, bought: Chinese Peptide Company) [phospho-Y-decapeptide p-NPM(Y17)] ? 1620

And for EAKFIN[pY]VKN (Stretch of nucleophosmin around Y271; source: synthetic peptide, bought: Chinese Peptide Company) [phospho-Y-decapeptide p-NPM(Y271)] ? 2070

Continuing:
Which Kd is listed for AMN[pY]EGSPIK (Stretch of nucleophosmin around Y67; source: synthetic peptide, bought: Chinese Peptide Company) [phospho-Y-decapeptide p-NPM(Y67)] ? 2010

And for ADKD[pY]HFKVD (Stretch of nucleophosmin around Y29; source: synthetic peptide, bought: Chinese Peptide Company) [phospho-Y-decapeptide p-NPM(Y29)] ? 2340
